Below: a set of entries, each annotated with reported LC50.
experiment: Toxicity in brine shrimp; format: organism-based; conditions: artemia, in vivo; read-out: LD50 (the source's name)
// return numeric value only (unit: µg/mL, not printed)

CC(C)=CCC[C@]1(C)/C=C/[C@@H](OC(=O)C=C(C)C)[C@](C)(O)/C=C/C(=O)/C(CO)=C\C1 [VIBSANIN B]; 17.5

Now examine the next entry.
-- ask Quick check: LC50 of CC(=O)C[C@@H]1OCC2=C1[C@H](/C=C/OC(=O)C=C(C)C)[C@@]1(C)CC[C@@H](C(C)(C)O)[C@@H]2C1 [NEOVIBSANIN F] ?
-- reply 46
